# reported 24 hr Dox Inducible TNFaFLGluc 293FRT/TO: TNF/PD1; entries follow
- Tested on: TNFα-FL/Gaussia Luciferase
- testMethodNotes: Dox Induced TNFα-FL-Gluc Assay
- Assay type: cell-based
- setupConditions: ratio of TNFaFLGluc IC50 to PD1ssGluc IC50
- Text: Flp-In 293 T-REx™ cells were transfected with pcDNA™5/FRT/TO plasmid inserted with cDNA encoding Gaussia Luciferase fused to the 3′ end of cDNA encoding full length TNFα (amino acids 1-233). Transfected cells were selected for resistance to the selectable markers Hygromycin and Blasticidin to create a stable cell line that contained the TNFα-FL/Gaussia Luciferase cDNA insert whose expression was regulated under the T-REx™ system. […]

Consider the reported 24 hr Dox Inducible TNFaFLGluc 293FRT/TO: TNF/PD1 for these compounds:
{"compound": "CC(CC#N)n1cnc(/C=C/c2csc(NC(=O)c3cccn3Cc3ccnc(F)c3)n2)c1 (stereo not shown)", "systemName": "TNFα-FL/Gaussia Luciferase", "result": ">11.3"}
{"compound": "Cc1cc(/C=C/c2csc(NC(=O)c3cccn3Cc3ccnc(F)c3)n2)no1", "systemName": "TNFα-FL/Gaussia Luciferase", "result": ">40.0"}

Qu. GET /values?readout=24 hr Dox Inducible TNFaFLGluc 293FRT/TO: TNF/PD1&item= CC(C)c1nc(/C=C/c2csc(NC(=O)c3cccn3Cc3ccncc3)n2)cn1C
Ans. >3.50

Qu. What do we get for CC(=O)N1CCC(n2cnc(/C=C/c3csc(NC(=O)c4cccn4Cc4ccnc(F)c4)n3)c2)CC1 ?
Ans. >4.13
